testDescription: Biodistribution of Al^18F(IMP485) alone or TF2 pretargeted
conditionLabel: nude (Taconic), mouse, in vivo, iv, 28 uCi, total radioactivity, % ID/org Stomach, alone, 1 h post injection
experimentalEndpoint: tissue uptake dose at 1 h (%ID)

NC(=O)[C@@H](CCCCNC(=O)CNC(=O)CCC(=O)NCCc1c[nH]cn1)NC(=O)[C@@H](Cc1ccc(O)cc1)NC(=O)[C@@H](CCCCNC(=O)CNC(=O)CCC(=O)NCCc1c[nH]cn1)NC(=O)Cc1ccc(CN2CCN(CC(=O)O)CCN(CC(=O)O)CC2)cc1 [Al^18F(IMP485)] = 0.057

----------
testDescription: in vivo
conditionLabel: Taconic nude, mouse, in vivo, iv, % ID/g Scapula
experimentalEndpoint: tissue uptake at 1 h (%ID/g)

NC(=O)[C@@H](CCCCNC(=O)CNC(=O)CCC(=O)NCCc1c[nH]cn1)NC(=O)[C@@H](Cc1ccc(O)cc1)NC(=O)[C@@H](CCCCNC(=O)CNC(=O)CCC(=O)NCCc1c[nH]cn1)NC(=O)Cc1ccc(CN2CCN(CC(=O)O)CCN(CC(=O)O)CC2)cc1 [Al^18F(IMP485)] = 0.5

----------
testDescription: in vivo
conditionLabel: nude, mouse, in vivo, iv, total radioactivity, % ID/g Lung
experimentalEndpoint: tissue uptake at 1 h (%ID/g)

NC(=O)[C@@H](CCCCNC(=O)CNC(=O)CCC(=O)NCCc1c[nH]cn1)NC(=O)[C@@H](Cc1ccc(O)cc1)NC(=O)[C@@H](CCCCNC(=O)CNC(=O)CCC(=O)NCCc1c[nH]cn1)NC(=O)Cc1ccc(CN2CCN(CC(=O)O)CCN(CC(=O)O)CC2)cc1 [Al^18F(IMP485)] = 0.535

----------
testDescription: Biodistribution of Al^18F(IMP485) alone or TF2 pretargeted
conditionLabel: nude, mouse, in vivo, iv, 28 uCi, total radioactivity, % ID/org Tumor, alone, 3 h post injection
experimentalEndpoint: tissue uptake dose at 3 h

NC(=O)[C@@H](CCCCNC(=O)CNC(=O)CCC(=O)NCCc1c[nH]cn1)NC(=O)[C@@H](Cc1ccc(O)cc1)NC(=O)[C@@H](CCCCNC(=O)CNC(=O)CCC(=O)NCCc1c[nH]cn1)NC(=O)Cc1ccc(CN2CCN(CC(=O)O)CCN(CC(=O)O)CC2)cc1 [Al^18F(IMP485)] = 0.022 %ID

----------
testDescription: in vivo
conditionLabel: nude (Taconic), mouse, in vivo, iv, total radioactivity, % ID/g Spleen
experimentalEndpoint: tissue uptake at 3 h (%ID/g)

NC(=O)[C@@H](CCCCNC(=O)CNC(=O)CCC(=O)NCCc1c[nH]cn1)NC(=O)[C@@H](Cc1ccc(O)cc1)NC(=O)[C@@H](CCCCNC(=O)CNC(=O)CCC(=O)NCCc1c[nH]cn1)NC(=O)Cc1ccc(CN2CCN(CC(=O)O)CCN(CC(=O)O)CC2)cc1 [Al^18F(IMP485)] = 0.138

----------
testDescription: in vivo
conditionLabel: Taconic nude, mouse, in vivo, iv, % ID/org Stomach
experimentalEndpoint: tissue uptake dose at 3 h

NC(=O)[C@@H](CCCCNC(=O)CNC(=O)CCC(=O)NCCc1c[nH]cn1)NC(=O)[C@@H](Cc1ccc(O)cc1)NC(=O)[C@@H](CCCCNC(=O)CNC(=O)CCC(=O)NCCc1c[nH]cn1)NC(=O)Cc1ccc(CN2CCN(CC(=O)O)CCN(CC(=O)O)CC2)cc1 [Al^18F(IMP485)] = 0.01 %ID
